- system name: Glutamate NMDA receptor; Grin1/Grin2b (Rattus norvegicus) (UniProt P35439+Q00960)
- assay comment: Activity at rat recombinant NR1/NR2B receptor expressed in Xenopus oocytes by two voltage clamp electrophysiology relative to glutamate
- Format: cell-based
- condition label: Oocyte
Listing of entries alongside the reported Imax.
property: Imax

>>> data_value("Cc1cnn(O)c1[C@@H](N)C(=O)O")
0.23
>>> data_value("NC(C(=O)O)c1c(Cl)cnn1O (racemic)")
0.29
>>> data_value("CCCc1cnn(O)c1C(N)C(=O)O (racemic)")
0.06

====

- system name: Glutamate NMDA receptor; Grin1/Grin2b (Rattus norvegicus, UniProt P35439+Q00960)
- assay comment: Activity at rat recombinant NR1/NR2B receptor expressed in Xenopus oocytes assessed as effect on glutamate-induced current by two voltage clamp electrophysiology
property: EC50 (µM)

>>> data_value("NC(C(=O)O)c1c(Cl)cnn1O (racemic)")
149
>>> data_value("Cc1cnn(O)c1[C@@H](N)C(=O)O")
36
>>> data_value("CN[C@H](CC(=O)O)C(=O)O")
22
>>> data_value("CCc1cnn(O)c1[C@@H](N)C(=O)O")
34
>>> data_value("NC(C(=O)O)c1ccnn1O (racemic)")
48
>>> data_value("CCc1cnn(O)c1C(N)C(=O)O (racemic)")
68
>>> data_value("CCCc1cnn(O)c1[C@@H](N)C(=O)O")
63
>>> data_value("CCCc1cnn(O)c1C(N)C(=O)O (racemic)")
105
>>> data_value("N[C@@H](C(=O)O)c1c(Cl)cnn1O")
58
>>> data_value("N[C@@H](C(=O)O)c1ccnn1O")
14
